B1: Pistol ribozyme (parent)
chain: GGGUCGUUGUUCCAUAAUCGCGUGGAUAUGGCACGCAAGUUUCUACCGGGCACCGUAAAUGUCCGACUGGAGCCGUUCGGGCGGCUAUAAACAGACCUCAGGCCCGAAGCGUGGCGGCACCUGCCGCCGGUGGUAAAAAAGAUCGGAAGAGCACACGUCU

Variants of: B1
protocol description: aptazyme ON/OFF ratio, guanine; higher = stronger switching; co-transcriptional cleavage with and without guanine
Consider the following variants; for each one, report its aptazyme ON/OFF ratio.

Give aptazyme ON/OFF ratio for all variants that follow.
1. U7G U8G U10A U11C C13U
2. U7G U8C G9A U10G U11G C12A C13G
3. G9C U10C U11G C12U C13A
4. G9C U10G C12G C13A

[1.08, 1.1, 1.04, 1.22]
